Molecular target: Mu-type opioid receptor (Rattus norvegicus, UniProt P33535)
Sequence (P33535 whole entry): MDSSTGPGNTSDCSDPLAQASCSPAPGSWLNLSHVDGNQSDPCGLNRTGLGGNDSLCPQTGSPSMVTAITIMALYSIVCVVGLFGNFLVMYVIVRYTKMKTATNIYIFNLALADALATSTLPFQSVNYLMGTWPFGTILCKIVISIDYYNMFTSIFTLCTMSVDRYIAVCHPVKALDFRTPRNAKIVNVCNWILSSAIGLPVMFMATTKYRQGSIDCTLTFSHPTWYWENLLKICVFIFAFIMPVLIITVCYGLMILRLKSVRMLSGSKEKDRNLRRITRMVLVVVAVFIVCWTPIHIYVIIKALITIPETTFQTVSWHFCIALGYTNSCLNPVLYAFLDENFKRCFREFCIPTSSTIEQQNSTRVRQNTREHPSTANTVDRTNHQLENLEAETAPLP
Test: Displacement of [3H]-CTOP from Mu-type opioid receptor in Sprague-Dawley rat brain homogenate after 180 mins by scintillation counting
Square brackets hold non-standard residues; d marks the D form. Peptide text beside a SMILES is read from it.
reported_property: IC50 (nM)

• C[C@@H](NC(=O)[C@@H](N)Cc1ccc(O)cc1)C(=O)N[C@@H](Cc1ccccc1)C(=O)NCC(N)=O (H-Y[dA]FG-NH2) = 36.7

====

Biological target: Delta-type opioid receptor (Mus musculus, UniProt P32300)
Sequence (P32300 whole entry): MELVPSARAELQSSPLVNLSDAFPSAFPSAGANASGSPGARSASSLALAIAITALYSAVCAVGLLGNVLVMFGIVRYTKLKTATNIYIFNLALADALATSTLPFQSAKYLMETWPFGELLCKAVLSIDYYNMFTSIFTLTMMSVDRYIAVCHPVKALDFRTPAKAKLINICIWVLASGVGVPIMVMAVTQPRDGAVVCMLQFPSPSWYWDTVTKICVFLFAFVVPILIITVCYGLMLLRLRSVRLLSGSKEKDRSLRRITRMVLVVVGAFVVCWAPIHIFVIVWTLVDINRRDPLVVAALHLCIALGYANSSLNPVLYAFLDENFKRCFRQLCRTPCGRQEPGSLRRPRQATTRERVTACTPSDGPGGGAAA
Test: Displacement of [125I]-Deltorphin II from mouse FLAG-tagged delta-type opioid receptor expressed in HEK293 cell membranes after 60 mins by gamma counting analysis
reported_property: IC50 (nM)

* Cc1cc(O)cc(C)c1C[C@H](N)C(=O)N[C@H](CCCNC(=N)N)C(=O)N[C@H]1Cc2ccc3ccccc3c2CN(CC(N)=O)C1=O | 153
* Cc1cc(O)cc(C)c1C[C@H](N)C(=O)N[C@H](CCCNC(=N)N)C(=O)N[C@H]1Cc2c(ccc3ccccc23)CN(CC(N)=O)C1=O | 1
* Cc1cc(O)cc(C)c1C[C@H](N)C(=O)N[C@H](CCCNC(=N)N)C(=O)N[C@H]1Cc2ccccc2N(CC(N)=O)C1=O | 630

====

Target: Mu-type opioid receptor (Cavia porcellus)
Sequence (P97266 whole entry): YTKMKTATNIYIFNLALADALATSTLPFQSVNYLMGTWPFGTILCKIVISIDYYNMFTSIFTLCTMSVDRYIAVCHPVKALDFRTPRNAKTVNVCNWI
Assay: Agonist activity at mu-opioid receptor in Hartley guinea pig ileum assessed as inhibition of electrically induced contractions after 3 mins post dose
Format: functional
Square brackets hold non-standard residues; d marks the D form. Peptide text beside a SMILES is read from it.
reported_property: IC50 (nM)

• C[C@@H](NC(=O)[C@@H](N)Cc1ccc(O)cc1)C(=O)N[C@@H](Cc1ccccc1)C(=O)NCC(N)=O (H-Y[dA]FG-NH2) = 35

====

Biological target: Delta-type opioid receptor (Mus musculus, UniProt P32300)
Test: Displacement of [125I]-Deltorphin II from mouse FLAG-tagged delta-type opioid receptor expressed in HEK293 cell membranes after 60 mins by gamma counting analysis
pIC50: −log10 of the molar value.
reported_property: pIC50

* Cc1cc(O)cc(C)c1C[C@H](N)C(=O)N(C)[C@H](C)C(=O)N[C@H]1Cc2c(ccc3ccccc23)CN(CC(N)=O)C1=O | 8.83
* Cc1cc(O)cc(C)c1C[C@H](N)C(=O)N[C@H](C)C(=O)N[C@H]1Cc2ccc3ccccc3c2CN(CC(N)=O)C1=O | 6.78
* Cc1cc(O)cc(C)c1C[C@H](N)C(=O)N[C@H](CCCNC(=N)N)C(=O)N[C@H]1Cc2ccc(Br)cc2CN(CC(N)=O)C1=O | 7.22
* Cc1cc(O)cc(C)c1C[C@H](N)C(=O)N[C@H](C)C(=O)N[C@H]1Cc2c(ccc3ccccc23)CN(CC(N)=O)C1=O | 8.68

====

Biological target: Delta-type opioid receptor (Homo sapiens)
Sequence (P41143 whole entry): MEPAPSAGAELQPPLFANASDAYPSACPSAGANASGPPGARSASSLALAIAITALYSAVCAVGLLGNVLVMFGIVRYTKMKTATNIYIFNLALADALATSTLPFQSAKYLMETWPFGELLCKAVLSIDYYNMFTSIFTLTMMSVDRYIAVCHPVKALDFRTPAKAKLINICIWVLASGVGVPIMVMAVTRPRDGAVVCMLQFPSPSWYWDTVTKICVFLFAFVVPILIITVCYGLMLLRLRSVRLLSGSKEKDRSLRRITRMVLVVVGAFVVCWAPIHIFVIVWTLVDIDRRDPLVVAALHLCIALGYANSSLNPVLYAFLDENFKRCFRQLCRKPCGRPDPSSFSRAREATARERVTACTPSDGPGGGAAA
Assay: Binding affinity to delta-type opioid receptor (unknown origin)
pKi: −log10 of the molar value.
reported_property: pKi

* Cc1cc(O)cc(C)c1C[C@H](N)C(=O)N[C@H](CCCN=C(N)N)C(=O)N[C@H]1Cc2ccccc2CN(CC(N)=O)C1=O | 9.22

====

Target: Mu-type opioid receptor (Rattus norvegicus)
Test: Displacement of [3H]naloxone from Mu-type opioid receptor in Sprague-Dawley rat brain membranes
Format: cell membranes, Membrane
pIC50: −log10 of the molar value.
reported_property: pIC50

• C[C@@H](NC(=O)[C@@H](N)Cc1ccc(O)cc1)C(=O)N[C@H]1Cc2ccccc2CN(CC(N)=O)C1=O = 7.46
